The measurements presented in this section are drawn from ChEMBL document CHEMBL1155442.

- target entity: Lysosomal acid glucosylceramidase (Homo sapiens, UniProt P04062)
- Sequence (P04062 whole entry): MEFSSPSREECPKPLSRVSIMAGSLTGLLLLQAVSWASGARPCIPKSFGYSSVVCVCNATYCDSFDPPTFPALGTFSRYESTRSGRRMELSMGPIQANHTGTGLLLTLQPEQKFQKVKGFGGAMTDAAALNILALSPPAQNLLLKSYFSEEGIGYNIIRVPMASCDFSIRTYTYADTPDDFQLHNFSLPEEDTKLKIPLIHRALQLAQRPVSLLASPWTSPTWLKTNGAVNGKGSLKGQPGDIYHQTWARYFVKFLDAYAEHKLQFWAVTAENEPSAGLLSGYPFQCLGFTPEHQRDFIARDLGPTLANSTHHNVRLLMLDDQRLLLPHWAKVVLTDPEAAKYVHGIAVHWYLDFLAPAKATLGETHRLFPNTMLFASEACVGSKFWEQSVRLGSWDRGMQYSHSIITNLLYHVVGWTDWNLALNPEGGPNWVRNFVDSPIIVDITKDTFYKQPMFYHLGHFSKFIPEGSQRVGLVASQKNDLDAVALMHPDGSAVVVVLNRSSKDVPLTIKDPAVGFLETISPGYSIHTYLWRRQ
- experimental details: Inhibition of recombinant beta-glucocerebrosidase at pH 7.4 after 10 mins by fluorimetry
parameter measured: IC50 (µM)

Example cases with answers are listed next.
| substance smiles | IC50 (µM) |
| --- | --- |
| CCCCCCCCCCn1cc(CN[C@H]2[C@H](O)[C@@H](O)[C@H](O)[C@@H](O)[C@@H]2O)nn1 | 0.09 |
| CCCOCCCCCCn1cc(CN[C@H]2[C@H](O)[C@@H](O)[C@H](O)[C@@H](O)[C@@H]2O)nn1 | 6.2 |
| CCCCCCCCn1cc(CCN[C@H]2[C@H](O)[C@@H](O)[C@H](O)[C@@H](O)[C@@H]2O)nn1 | 55.9 |
| CCCCCCCCCCCCCCn1cc(CN[C@H]2[C@H](O)[C@@H](O)[C@H](O)[C@@H](O)[C@@H]2O)nn1 | 0.1 |
| CCCCCCCCn1cc(CN[C@H]2[C@H](O)[C@@H](O)[C@H](O)[C@@H](O)[C@@H]2O)nn1 | 1.1 |

1: CCCCCCCCCn1cc(CCN[C@H]2[C@H](O)[C@@H](O)[C@H](O)[C@@H](O)[C@@H]2O)nn1
2: CCCCCCn1cc(CCCN[C@H]2[C@H](O)[C@@H](O)[C@H](O)[C@@H](O)[C@@H]2O)nn1
3: CCCCCCCCCCCn1cc(CCN[C@H]2[C@H](O)[C@@H](O)[C@H](O)[C@@H](O)[C@@H]2O)nn1
4: O[C@@H]1[C@@H](O)[C@H](O)[C@@H](NCc2cn(CCc3ccccc3)nn2)[C@H](O)[C@H]1O
[in] Sort low-to-high on IC50, please. Form entry: ranked labels (order as requested).
[out] 3, 1, 4, 2

a: CCCCCCCCn1cc(CCCN[C@H]2[C@H](O)[C@@H](O)[C@H](O)[C@@H](O)[C@@H]2O)nn1
b: CCCCCCCCCn1cc(CN[C@H]2[C@H](O)[C@@H](O)[C@H](O)[C@@H](O)[C@@H]2O)nn1
c: CCCCCCCCCCCCn1cc(CN[C@H]2[C@H](O)[C@@H](O)[C@H](O)[C@@H](O)[C@@H]2O)nn1
d: CCCCCCCCCCn1cc(CCCN[C@H]2[C@H](O)[C@@H](O)[C@H](O)[C@@H](O)[C@@H]2O)nn1
[in] Arrange these molecules by their IC50, starting with the largest number. Form entry: ranked labels (order as requested).
[out] a, d, b, c
(a: 18.2 µM, d: 1.2 µM, b: 0.2 µM, c: 0.06 µM)

* * *

- target entity: UniProtKB P04062
- experimental details: Inhibition of recombinant beta-glucocerebrosidase at pH 5.2 after 10 mins by fluorimetry
parameter measured: IC50 (µM)

P: CCCCCCCCCCn1cc(CN[C@H]2[C@H](O)[C@@H](O)[C@H](O)[C@@H](O)[C@@H]2O)nn1
Q: CCCCCCCCn1cc(CCCN[C@H]2[C@H](O)[C@@H](O)[C@H](O)[C@@H](O)[C@@H]2O)nn1
R: CCCCn1cc(CN[C@H]2[C@H](O)[C@@H](O)[C@H](O)[C@@H](O)[C@@H]2O)nn1
S: CCCOCCCCCCn1cc(CN[C@H]2[C@H](O)[C@@H](O)[C@H](O)[C@@H](O)[C@@H]2O)nn1
[in] Arrange items by their IC50 values in increasing order. Form entry: ranked labels (order as requested).
[out] P, S, Q, R
(P: 0.1 µM, S: 7.4 µM, Q: 35.4 µM, R: 178 µM)

A: CCCCCCCCCn1cc(CCN[C@H]2[C@H](O)[C@@H](O)[C@H](O)[C@@H](O)[C@@H]2O)nn1
B: CCCCCCCCCCCCn1cc(CN[C@H]2[C@H](O)[C@@H](O)[C@H](O)[C@@H](O)[C@@H]2O)nn1
C: CCCCCCCCn1cc(CCN[C@H]2[C@H](O)[C@@H](O)[C@H](O)[C@@H](O)[C@@H]2O)nn1
D: O[C@@H]1[C@@H](O)[C@H](O)[C@@H](NCc2cn(CCc3ccccc3)nn2)[C@H](O)[C@H]1O
[in] Sort low-to-high on IC50, please. Form entry: ranked labels (order as requested).
[out] B, D, A, C

a: CCCCCCCCCn1cc(CN[C@H]2[C@H](O)[C@@H](O)[C@H](O)[C@@H](O)[C@@H]2O)nn1
b: CCCCCCCCCCCn1cc(CCN[C@H]2[C@H](O)[C@@H](O)[C@H](O)[C@@H](O)[C@@H]2O)nn1
[in] Which shows the larger IC50 value: a or b ? // respond with label for picked entry
[out] b
